target: MCL-1/Bim interaction (recombinant human MCL-1 protein, residues 171-327; biotinylated human Bim peptide, residues 51-76) (Homo sapiens (Human), UniProt Q07820); assay: MCL-1/Bim Binding AlphaLISA Assay; settings: 0.0625 nM 6xHis-Mcl-1 (171-327), 0.0625 nM biotinylated-Bim peptide
Sequence (Q07820 171-327): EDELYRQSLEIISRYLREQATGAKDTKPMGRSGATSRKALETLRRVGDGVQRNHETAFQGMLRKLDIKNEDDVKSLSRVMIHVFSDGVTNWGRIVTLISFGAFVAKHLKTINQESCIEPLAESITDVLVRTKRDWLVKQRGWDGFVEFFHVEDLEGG
pIC50: −log10 of the molar value.
# key: entry, value: pIC50
endpoint: pIC50

>>> experimental_result("CO[C@H]1/C=C/CCC[S@@](=O)(NC(=O)N2CCS(=O)(=O)CC2)=NC(=O)c2ccc3c(c2)N(C[C@@H]2CC[C@H]21)C[C@@]1(CCCc2cc(Cl)ccc21)CO3")
9.52
>>> experimental_result("CCC1CN(C(=O)N[S@@]2(=O)=NC(=O)c3ccc4c(c3)N(C[C@@H]3CC[C@H]3[C@@H](OC)/C=C/C[C@H](C)C2)C[C@@]2(CCCc3cc(Cl)ccc32)CO4)C1")
10.13
>>> experimental_result("COCC1(COC)Cn2cc(C(=O)N[S@@]3(=O)=NC(=O)c4ccc5c(c4)N(C[C@@H]4CC[C@H]4[C@@H](O)/C=C/C[C@H](C)[C@H]3C)C[C@@]3(CCCc4cc(Cl)ccc43)CO5)cc2CO1")
10.12
